# TEST_SYSTEM: mouse TMEM16A mutant V543A (Mus musculus, UniProt Q8BHY3, V543A)
# Construct: expressed in transfected cells; host or cells: HEK293T
# Sequence (Q8BHY3 1-960 V543A): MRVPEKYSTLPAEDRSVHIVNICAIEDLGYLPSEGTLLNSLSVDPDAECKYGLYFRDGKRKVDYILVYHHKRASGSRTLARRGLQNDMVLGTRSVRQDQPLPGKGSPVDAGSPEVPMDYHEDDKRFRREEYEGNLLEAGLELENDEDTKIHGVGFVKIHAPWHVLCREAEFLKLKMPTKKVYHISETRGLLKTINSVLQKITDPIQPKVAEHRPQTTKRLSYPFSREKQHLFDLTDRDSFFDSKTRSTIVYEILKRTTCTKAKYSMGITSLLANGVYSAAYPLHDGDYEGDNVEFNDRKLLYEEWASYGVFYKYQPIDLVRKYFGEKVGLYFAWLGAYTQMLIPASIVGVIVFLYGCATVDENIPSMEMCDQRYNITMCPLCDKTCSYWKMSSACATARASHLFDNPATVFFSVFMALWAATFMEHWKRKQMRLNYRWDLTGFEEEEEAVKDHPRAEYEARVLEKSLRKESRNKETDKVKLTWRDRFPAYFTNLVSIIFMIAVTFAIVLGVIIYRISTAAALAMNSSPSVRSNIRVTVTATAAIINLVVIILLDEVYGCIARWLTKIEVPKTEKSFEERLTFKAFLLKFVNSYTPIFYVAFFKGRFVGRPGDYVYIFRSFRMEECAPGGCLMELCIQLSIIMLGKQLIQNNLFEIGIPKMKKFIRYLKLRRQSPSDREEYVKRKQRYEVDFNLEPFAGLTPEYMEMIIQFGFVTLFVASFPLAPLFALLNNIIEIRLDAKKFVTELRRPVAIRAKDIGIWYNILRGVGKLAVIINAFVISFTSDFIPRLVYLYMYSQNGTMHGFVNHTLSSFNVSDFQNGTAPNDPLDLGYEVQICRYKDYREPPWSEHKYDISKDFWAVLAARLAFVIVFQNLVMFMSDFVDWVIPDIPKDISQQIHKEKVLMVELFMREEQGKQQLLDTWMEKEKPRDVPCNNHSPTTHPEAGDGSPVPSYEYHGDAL
# RUN_DESCRIPTION: Inside-out patch recording of 1PBC block, mutant V543A
# Assay type: cell-based
# PROTOCOL_CONDITIONS: 100 mV; 15 µM Ca2+
RECORDED_METRIC: IC50
Entry format: amount then unit.

INPUT: Recorded IC50 for N#Cc1c(C(F)(F)F)cc(O)n2c1nc1ccccc12 [1PBC] , please?
OUTPUT: 8.37 µM

* * *

# TEST_SYSTEM: mouse TMEM16A mutant I640A (Mus musculus, UniProt Q8BHY3, I640A)
# Construct: expressed in transfected cells; host or cells: HEK293T
# RUN_DESCRIPTION: Inside-out patch recording of 1PBC block, mutant I640A
# Assay type: cell-based
# PROTOCOL_CONDITIONS: I640A; V -40 mV
RECORDED_METRIC: pIC50
The value called pIC50 is obtained by taking minus log10 of the concentration in mol/L.

INPUT: # pIC50 lookup, item `N#Cc1c(C(F)(F)F)cc(O)n2c1nc1ccccc12`
OUTPUT: 4.38

* * *

# TEST_SYSTEM: mouse TMEM16A mutant P595A (Mus musculus, UniProt Q8BHY3, P595A)
# Construct: expressed in transfected cells; host or cells: HEK293T
# Sequence (Q8BHY3 1-960 P595A): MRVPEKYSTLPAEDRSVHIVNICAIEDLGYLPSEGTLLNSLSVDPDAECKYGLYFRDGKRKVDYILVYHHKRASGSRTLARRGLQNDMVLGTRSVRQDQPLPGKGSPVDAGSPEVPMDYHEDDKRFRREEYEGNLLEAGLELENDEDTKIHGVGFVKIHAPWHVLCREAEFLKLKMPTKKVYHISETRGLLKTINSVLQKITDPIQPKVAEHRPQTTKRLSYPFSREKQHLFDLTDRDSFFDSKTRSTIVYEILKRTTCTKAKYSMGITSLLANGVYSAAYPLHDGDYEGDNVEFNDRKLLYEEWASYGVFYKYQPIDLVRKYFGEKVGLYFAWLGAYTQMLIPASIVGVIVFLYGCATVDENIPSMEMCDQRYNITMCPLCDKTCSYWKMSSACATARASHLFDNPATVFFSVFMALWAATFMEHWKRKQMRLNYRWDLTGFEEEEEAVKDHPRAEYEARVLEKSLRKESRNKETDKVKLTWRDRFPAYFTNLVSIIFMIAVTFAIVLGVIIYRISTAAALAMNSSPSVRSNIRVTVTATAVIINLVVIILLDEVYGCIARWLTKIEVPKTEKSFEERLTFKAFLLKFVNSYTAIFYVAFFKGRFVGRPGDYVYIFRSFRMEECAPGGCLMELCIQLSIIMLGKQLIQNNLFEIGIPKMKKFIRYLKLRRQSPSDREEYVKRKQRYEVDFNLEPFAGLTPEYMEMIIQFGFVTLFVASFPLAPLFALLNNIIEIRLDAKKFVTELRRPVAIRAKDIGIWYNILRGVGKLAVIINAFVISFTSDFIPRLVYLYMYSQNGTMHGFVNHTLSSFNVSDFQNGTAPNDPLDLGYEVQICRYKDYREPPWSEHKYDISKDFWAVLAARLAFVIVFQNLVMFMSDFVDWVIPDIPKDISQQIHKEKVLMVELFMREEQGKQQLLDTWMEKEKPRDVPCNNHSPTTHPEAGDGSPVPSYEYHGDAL
# RUN_DESCRIPTION: Inside-out patch recording of 1PBC block, mutant P595A
# Assay type: cell-based
# PROTOCOL_CONDITIONS: -80 mV; 2 µM Ca2+
RECORDED_METRIC: pIC50
// pIC50: -log10(molar conc.)

INPUT: Give the measured pIC50 of `N#Cc1c(C(F)(F)F)cc(O)n2c1nc1ccccc12` .
OUTPUT: 5.15
